Test system: CYP3A4 (Homo sapiens, UniProt P08684)
Sequence (P08684 whole entry): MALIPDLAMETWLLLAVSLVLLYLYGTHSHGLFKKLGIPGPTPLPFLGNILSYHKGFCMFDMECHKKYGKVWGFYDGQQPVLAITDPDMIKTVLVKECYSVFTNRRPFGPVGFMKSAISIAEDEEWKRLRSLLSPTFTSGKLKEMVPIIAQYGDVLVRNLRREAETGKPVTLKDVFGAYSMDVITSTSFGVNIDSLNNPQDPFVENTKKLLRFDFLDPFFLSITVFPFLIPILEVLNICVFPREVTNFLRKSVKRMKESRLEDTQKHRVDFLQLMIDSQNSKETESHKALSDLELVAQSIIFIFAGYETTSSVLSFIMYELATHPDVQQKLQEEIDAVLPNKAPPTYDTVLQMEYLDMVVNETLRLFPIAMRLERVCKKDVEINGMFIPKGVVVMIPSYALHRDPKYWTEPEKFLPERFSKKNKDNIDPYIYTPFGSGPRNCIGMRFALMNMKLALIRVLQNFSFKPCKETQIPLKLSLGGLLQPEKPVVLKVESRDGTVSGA
Protocol text: Inhibition of CYP3A4 (unknown origin) expressed in insect cells at 10 uM using testosterone as substrate after 15 mins by HPLC analysis relative to control
Type: ADME
Assay context: recombinant CYP3A4 expressed in insect cells, probe testosterone
# Lookup of reported inhibition at 0.25 h, 10 µM keyed by entry
Quick note: give the figure in %, leave out the unit.

- Structure smiles: "CNCc1cn(S(=O)(=O)c2cnccc2C)c(-c2cccnc2F)c1F"
  inhibition at 0.25 h, 10 µM / %: 40
- Structure smiles: "CNCc1cn(S(=O)(=O)c2ccc(OC)cn2)c(-c2cccnc2F)c1F"
  inhibition at 0.25 h, 10 µM / %: 7.7
- Structure smiles: "CNCc1cc(-c2cccnc2F)n(S(=O)(=O)c2cccnc2)c1"
  inhibition at 0.25 h, 10 µM / %: 4.2
- Structure smiles: "CNCc1cn(S(=O)(=O)c2ccoc2)c(-c2cccnc2F)c1F"
  inhibition at 0.25 h, 10 µM / %: 12.8
- Structure smiles: "CNCc1cn(S(=O)(=O)c2cccnc2)c(-c2cccnc2F)c1F"
  inhibition at 0.25 h, 10 µM / %: 14.4

What inhibition at 0.25 h, 10 µM value was documented for this molecule, CNCc1cc(-c2cccnc2F)n(S(=O)(=O)c2ccsc2)c1 ?
1.4

Now give it for CNCc1cn(S(=O)(=O)c2cc(OC)ccn2)c(-c2cccnc2F)c1F too.
19

Now give it for CNCc1cn(S(=O)(=O)c2cccc(OC)n2)c(-c2cccnc2F)c1F too.
55.8

Now give it for CNCc1cn(S(=O)(=O)c2cccnc2C)c(-c2cccnc2F)c1F too.
30.1

Now give it for CNCc1cn(S(=O)(=O)c2ccco2)c(-c2cccnc2F)c1F too.
5.6

Now give it for CNCc1cn(S(=O)(=O)c2cncc(Cl)c2)c(-c2cccnc2F)c1F too.
45.9

Now give it for CNCc1cn(S(=O)(=O)c2ccc(F)cn2)c(-c2cccnc2F)c1F too.
21.7

Now give it for CNCc1cn(S(=O)(=O)c2cncc(C)c2)c(-c2cccnc2F)c1F too.
49.7

Now give it for CNCc1cn(S(=O)(=O)c2cncc(F)c2)c(-c2cccnc2F)c1F too.
27
